The values you see were collected from PubChem BioAssay (NCATS).

assay: qHTS for differential inhibitors of proliferation of Plasmodium falciparum line 7G8 (AID 1815); details: Plasmodium falciparum 7G8 proliferation inhibition; series mostly up to 28.7 µM;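 further: parasite growth measured after three days of incubation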; further: potency means the concentration at half of the fitted maximal effect
Inconclusive results are not listed. Calls of active or inactive are those of the source. The call rests on the fitted dose curve; in most records, active means well fitted curve in the direction sought with a large enough effect; inconclusive means small, poorly fitted or top-dose-only effect, or another doubt; inactive means no such curve, though single readings can be large or run the other way.
reported_metric: Potency

- molecule: "CC(C)(Oc1ccc(C2CC2(Cl)Cl)cc1)C(=O)O (configuration not stated)"
  Potency: "inactive"
- molecule: "Clc1ccc(C(c2ccccc2Cl)C(Cl)Cl)cc1 (configuration not stated)"
  Potency: "inactive"
- molecule: "CN1CCN(CCCN2c3ccccc3Sc3ccc(Cl)cc32)CC1"
  Potency: "5.01 µM (active)"
- molecule: "Cn1cnc2c1c(=O)[nH]c(=O)n2C"
  Potency: "inactive"
- molecule: "CCC1(C)CC(=O)NC1=O (configuration not stated)"
  Potency: "inactive"
- molecule: "CCc1cccc2c3c([nH]c12)C(CC)(CC(=O)O)OCC3 (configuration not stated)"
  Potency: "inactive"

Exercise: # get_value(readout='Potency', item= Clc1ccc2c(c1)C(N1CCNCC1)=Nc1ccccc1O2 )
Solution: 7.08 µM (active)

###

compounds and their reported Potency
assay: qHTS for differential inhibitors of proliferation of Plasmodium falciparum line W2 (AID 1883); settings: Plasmodium falciparum W2 proliferation inhibition; series mostly up to 28.7 µM;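 further: potency means the concentration at half of the fitted maximal effect; parasites grown with compound for 72 h before lysis and staining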
Results filed as inconclusive are left out. Calls of active or inactive are those of the source. Calls follow the shape of the dose curve; as a rule, active = well fitted curve in the direction sought with a large enough effect; inconclusive = small, poorly fitted or top-dose-only effect, or another doubt; inactive = no such curve, though single readings can be large or run the other way.

Illustrative cases are given below, each with its answer.
- compound: "O=C(c1ccc(OCCN2CCCCC2)cc1)c1c(-c2ccc(O)cc2)sc2cc(O)ccc12"
  Potency: "3.16 µM (active)"
- compound: "Cc1cc(C(C)(C)C)c(O)c(C)c1CC1=NCCN1"
  Potency: "12.6 µM (active)"

Exercise: # get_value(readout='Potency', item= CC(CCc1ccc(O)cc1)NCCc1ccc(O)c(O)c1 (stereo not drawn) )
Solution: 10 µM (active)

###

assay: High Content Imaging Cell-Based qHTS for Inhibitors of the mTORC1 Signaling Pathway in MEF (Tsc2-/-, p53-/-) Cells (AID 2666); details: series mostly up to 38.3 µM;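 further: percent of cells scored positive for phospho-rpS6 Ser235/236 immunostaining by imaging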
Records with an inconclusive call do not appear. Activity calls are given as the source filed them. Calls follow the shape of the dose curve; as a rule, active = well fitted inhibition curve with a large enough effect; inconclusive = small, poorly fitted or top-dose-only effect; inactive = flat fitted curve, though single readings scatter.
Form entry, call: pick from active, inactive

- compound: "CC(CCc1ccc(O)cc1)NCCc1ccc(O)c(O)c1 (centres undefined)"
  assigned_category: "inactive"
- compound: "NC(=O)NO"
  assigned_category: "inactive"

Exercise: Which outcome was assigned to Clc1ccc2nsnc2c1NC1=NCCN1 in this test?
Solution: inactive

Exercise: Which outcome was assigned to CC(C)NCC(O)COc1ccc(CCOCC2CC2)cc1 (centres undefined) in this test?
Solution: inactive

###

molecular target: Tyrosine-protein phosphatase non-receptor type substrate 1 (Homo sapiens) + Leukocyte surface antigen CD47 (Homo sapiens) (UniProt P78324+Q08722); assay: CD47-SIRPalpha protein protein interaction - Alpha assay qHTS validation (AID 1347059); settings: AlphaScreen CD47-His/biotin-SIRPalpha binding, LOPAC; series mostly up to 38.3 µM;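 further: bead proximity luminescence from CD47 binding SIRPalpha after compound preincubation with SIRPalpha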
Sequence (P78324 whole entry, looked up): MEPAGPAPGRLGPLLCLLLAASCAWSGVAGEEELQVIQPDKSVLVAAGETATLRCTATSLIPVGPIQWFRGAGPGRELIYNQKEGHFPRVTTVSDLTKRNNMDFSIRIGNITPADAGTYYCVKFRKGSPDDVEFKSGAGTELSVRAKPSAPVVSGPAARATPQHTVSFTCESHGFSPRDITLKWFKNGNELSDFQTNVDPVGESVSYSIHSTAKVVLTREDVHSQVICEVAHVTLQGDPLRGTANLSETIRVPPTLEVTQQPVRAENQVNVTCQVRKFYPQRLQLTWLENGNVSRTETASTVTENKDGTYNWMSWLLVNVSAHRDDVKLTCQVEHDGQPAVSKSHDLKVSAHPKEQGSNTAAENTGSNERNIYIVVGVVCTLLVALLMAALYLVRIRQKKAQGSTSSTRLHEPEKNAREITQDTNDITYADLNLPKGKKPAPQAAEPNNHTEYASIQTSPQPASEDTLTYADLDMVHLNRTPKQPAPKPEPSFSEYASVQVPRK
Sequence (Q08722 whole entry, looked up): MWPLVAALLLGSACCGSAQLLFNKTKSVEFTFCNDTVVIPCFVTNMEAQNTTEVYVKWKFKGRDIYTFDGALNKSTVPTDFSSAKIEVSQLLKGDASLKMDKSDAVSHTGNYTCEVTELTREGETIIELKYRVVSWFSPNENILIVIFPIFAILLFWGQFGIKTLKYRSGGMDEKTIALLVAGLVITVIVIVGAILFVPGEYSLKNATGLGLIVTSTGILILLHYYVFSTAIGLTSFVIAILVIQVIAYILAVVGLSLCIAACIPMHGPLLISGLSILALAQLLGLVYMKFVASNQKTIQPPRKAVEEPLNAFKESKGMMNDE
Inconclusive results are not listed. Active and inactive are the calls of the source. Calls come from the whole dose curve; as a rule, active = well fitted inhibition curve with a large enough effect; inconclusive = small, poorly fitted or top-dose-only effect; inactive = flat fitted curve, though single readings scatter.
reported_metric: outcome

- compound: "CN1CCC(=C2c3ccccc3CC(=O)c3sccc32)CC1"
  result: "inactive"
- compound: "COc1ccc(C2CNC(=O)C2)cc1OC1CCCC1 (stereo unspecified)"
  result: "inactive"
- compound: "Cc1cc(C(C)(C)C)cc(C)c1CC1=NCCN1"
  result: "inactive"
- compound: "Cc1cn([C@H]2C=C[C@@H](CO)O2)c(=O)[nH]c1=O"
  result: "inactive"
- compound: "O=c1c(-c2ccc(O)cc2)coc2cc(O)cc(O)c12"
  result: "inactive"

// next item, outcome requested
Exercise: # get_value(readout='outcome', item= COc1cc2nc(N3CCN(C(=O)c4ccco4)CC3)nc(N)c2cc1OC )
Solution: inactive

###

target: Chromobox protein homolog 1 (Homo sapiens); assay: qHTS Validation Assay for Inhibitors of HP1-beta Chromodomain Interactions with Methylated Histone Tails (AID 488953); conditions: HP1-beta chromodomain / methylated histone peptide binding assay; series mostly up to 114 µM; further: nearly all actives have a fitted effect of over 50% in size
Inconclusive results are not listed. The source made the active and inactive calls. Calls come from the whole dose curve; as a rule, active = well fitted inhibition curve with a large enough effect; inconclusive = small, poorly fitted or top-dose-only effect; inactive = no such curve, though single readings can be large or run the other way.
Form entry, call: pick from active, inactive

Please review the entries below; each comes with its answer.
- compound: "COc1cc2nc(N3CCN(C(=O)c4ccco4)CC3)nc(N)c2cc1OC"
  assay_system: "Chromobox protein homolog 1 (Homo sapiens)"
  assigned_category: "inactive"
- compound: "CCC1(C)CC(=O)NC1=O (stereo unspecified)"
  assay_system: "Chromobox protein homolog 1 (Homo sapiens)"
  assigned_category: "inactive"
- compound: "COc1cc2nc(N(C)CCCNC(=O)C3CCCO3)nc(N)c2cc1OC (stereo unspecified)"
  assay_system: "Chromobox protein homolog 1 (Homo sapiens)"
  assigned_category: "inactive"
- compound: "Cc1ccc(C(=O)Nc2ccc(S(=O)(=O)O)c3cc(S(=O)(=O)O)cc(S(=O)(=O)O)c23)cc1NC(=O)c1cccc(NC(=O)Nc2cccc(C(=O)Nc3cc(C(=O)Nc4ccc(S(=O)(=O)O)c5cc(S(=O)(=O)O)cc(S(=O)(=O)O)c45)ccc3C)c2)c1"
  assay_system: "Chromobox protein homolog 1 (Homo sapiens)"
  assigned_category: "active"
- compound: "Cn1cnc2c1c(=O)[nH]c(=O)n2C"
  assay_system: "Chromobox protein homolog 1 (Homo sapiens)"
  assigned_category: "inactive"

Lab note: next compound to report on.
Exercise: Which outcome was assigned to NC(=O)NO in this test?
Solution: inactive

###

assay: Quantitative High-Throughput drug screen in 47 multiple myeloma cell lines against the NCATS MIPE library collection: OCIMY1_PLB cell viability assay (AID 1918979); details: OCI-MY1 myeloma viability, CellTiter-Glo ATP, 48 h; series mostly up to 45.8 µM; further: nearly all actives have a fitted effect of over 35% in size;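 on viability: 100% = DMSO-only wells and 0% = cell-free media-only wells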
Records with an inconclusive call do not appear. The source made the active and inactive calls. Calls come from the whole dose curve; as a rule, active = well fitted cell-killing curve with a large enough effect; inconclusive = small, poorly fitted or top-dose-only effect, or effect the other way; inactive = no such curve, though single readings can be large or run the other way.
Form entry, call: pick from active, inactive

Exercise: Which outcome was assigned to NC(CO)C(=O)NNCc1ccc(O)c(O)c1O (stereo not drawn) in this test?
Solution: active

Exercise: Which outcome was assigned to Nc1nnc(-c2cccc(Cl)c2Cl)c(N)n1 in this test?
Solution: inactive

###

tested on: CP203; test: qHTS profiling for inhibitors of Plasmodium falciparum proliferation (AID 504749);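 further: 0% = DMSO vehicle and full inhibition = artemisinin control; nearly all actives have a fitted effect of over 60% in size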; details: P. falciparum in erythrocytes, SYBR Green DNA, 72 h; series mostly up to 28.7 µM
Inconclusive results are not listed. Active and inactive are the calls of the source. Calls follow the shape of the dose curve; as a rule, active = well fitted inhibition curve with a large enough effect; inconclusive = small, poorly fitted or top-dose-only effect; inactive = flat fitted curve, though single readings scatter.
Form entry, call: pick from label 1 (active), label 0 (inactive)

- compound: "CN1CCC(=C2c3ccccc3C=Cc3ccccc32)CC1"
  assigned_category: "label 0"

Lab note: next compound to report on.
Exercise: Which outcome was assigned to CCOC(=O)Nc1ccc(NCc2ccc(F)cc2)nc1N in this test?
Solution: label 0

###

assay: qHTS of pediatric cancer cell lines to identify multiple opportunities for drug repurposing: Confirmatory screen for NB-EBc1 cells (AID 1347115); details: NB-EBc1 neuroblastoma cells, viability (cytotoxicity); series mostly up to 45.9 µM;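 further: cells exposed to compound for 48 h before the viability read; nearly all actives have a fitted effect of over 45% in size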
Records with an inconclusive call do not appear. Calls of active or inactive are those of the source. The call rests on the fitted dose curve; in most records, active means well fitted cell-killing curve with a large enough effect; inconclusive means small, poorly fitted or top-dose-only effect, or effect the other way; inactive means no such curve, though single readings can be large or run the other way.
Form entry, call: pick from active, inactive

- compound: "CC(C)C(=O)Nc1ccc([N+](=O)[O-])c(C(F)(F)F)c1"
  assigned_category: "inactive"
- compound: "CC(C)Cc1ccc(C(C)C(=O)O)cc1 (configuration not stated)"
  assigned_category: "inactive"
- compound: "CCC1(c2ccccc2)C(=O)NCNC1=O"
  assigned_category: "inactive"
- compound: "CS(=O)(=O)CCNCc1ccc(-c2ccc3ncnc(Nc4ccc(OCc5cccc(F)c5)c(Cl)c4)c3c2)o1"
  assigned_category: "inactive"
- compound: "CCCCc1oc2ccccc2c1C(=O)c1cc(I)c(OCCN(CC)CC)c(I)c1"
  assigned_category: "active"
- compound: "CN(C)CCCN1c2ccccc2CCc2ccc(Cl)cc21"
  assigned_category: "inactive"
- compound: "CC(CCc1ccc(O)cc1)NCCc1ccc(O)c(O)c1 (configuration not stated)"
  assigned_category: "active"
- compound: "O=C(c1ccc(OCCN2CCCCC2)cc1)c1c(-c2ccc(O)cc2)sc2cc(O)ccc12"
  assigned_category: "inactive"

Exercise: Which outcome was assigned to CC(C)NCC(O)c1ccc(O)c(O)c1 (configuration not stated) in this test?
Solution: inactive

Exercise: Which outcome was assigned to NC(=O)NO in this test?
Solution: inactive

Exercise: Which outcome was assigned to CC[C@@]1(O)C(=O)OCc2c1cc1n(c2=O)Cc2cc3c(CN(C)C)c(O)ccc3nc2-1 in this test?
Solution: active

Exercise: Which outcome was assigned to Clc1ccc2nsnc2c1NC1=NCCN1 in this test?
Solution: inactive

###

assay: qHTS for Activators of Parkin Expression: LOPAC Validation Assay (NLuc Reporter) (AID 720572;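 further: 0% = DMSO and 100% = positive control compound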); conditions: Parkin promoter NanoLuc reporter cells, luminescence, percent of positive control, DMSO as zero; series mostly up to 46.1 µM
Results filed as inconclusive are left out. Activity calls are given as the source filed them. The call rests on the fitted dose curve; in most records, active means well fitted activation curve with a large enough effect; inconclusive means small, poorly fitted or top-dose-only effect; inactive means flat fitted curve, though single readings scatter.
reported_metric: outcome

Illustrative cases are given below, each with its answer.
- compound: "COc1ccccc1OCC(O)CN1CCN(CC(=O)Nc2c(C)cccc2C)CC1 (configuration not stated)"
  outcome: "inactive"
- compound: "COC(=O)Nc1nc2ccc(C(=O)c3cccs3)cc2[nH]1"
  outcome: "inactive"
- compound: "CCOC(=O)Nc1ccc(NCc2ccc(F)cc2)nc1N"
  outcome: "inactive"
- compound: "NCCc1cnc[nH]1"
  outcome: "inactive"
- compound: "COc1ccccc1OCCNCC(O)COc1cccc2[nH]c3ccccc3c12 (configuration not stated)"
  outcome: "inactive"

Exercise: # get_value(readout='outcome', item= CCOC(=O)c1ncn2c1CN(C)C(=O)c1cc(F)ccc1-2 )
Solution: inactive

Exercise: # get_value(readout='outcome', item= Nc1c2c(nc3ccccc13)CCCC2 )
Solution: inactive

Exercise: # get_value(readout='outcome', item= CS(=O)(=O)Nc1ccc([N+](=O)[O-])cc1Oc1ccccc1 )
Solution: inactive

Exercise: # get_value(readout='outcome', item= COc1cc2c(c(OC)c1OC)-c1ccc(OC)c(=O)cc1[C@@H](NC(C)=O)CC2 )
Solution: inactive

Exercise: # get_value(readout='outcome', item= CN(Cc1cnc2nc(N)nc(N)c2n1)c1ccc(C(=O)N[C@@H](CCC(=O)O)C(=O)O)cc1 )
Solution: inactive

Exercise: # get_value(readout='outcome', item= Nc1nnc(-c2cccc(Cl)c2Cl)c(N)n1 )
Solution: inactive

Exercise: # get_value(readout='outcome', item= Cn1ccc2cc3c(cc21)CCN3C(=O)Nc1cccnc1 )
Solution: inactive
